Target: recombinant homotrimeric HA A/duck/Yangzhou/02/05 H8N4 (Influenza A virus A/duck/Yangzhou/02/2005(H8N4))
Assay: protein microarray, purified IgG, trimeric HA
Conditions: remark: other sources report otherwise
Collected Trimeric HA Binding: RLU values appear next to each entry.
Give the number; RLU is assumed, so skip it.

The examples below pair each entry with its known result.
{"columns": ["binder", "uom", "quantitativeReadout"],
 "data": [
  ["TCN-539 (5056_A08) (antibody, V domains shown) VH: QVQLVESGGGVVQPGRSLRLSCAASEITFITYAMHWVRQAPGKGLEWVALISDDGSNKFYADSVKGRFTISRDNSKNTLYLQMNSLRAEDTAAYYCAREGVYFDSGTYRGYFDYWGQETLVTVSS VL: EIVLTQSPATLSLSPGERATLSCRASQSVSSYLAWYQQKPGQAPRLLIYDASNRATGIPARFSGSGSGTDFTLTISSLEPEDFAVYYCQQRSHWPPITFGQGTRLEIK", "RLU", 124],
  ["TCN-531 (5091_H13) (antibody, V domains shown) VH: EVQLVESGGDLVQPGRSLKLSCTGSGFTFGDYGVTWVRQAPGKGLEWVGFIRTRPWGGTADTAASVKGRFTISRDDSKSLAYLQMNSLKTEDTAVYYCCRDAPPNVEVASMTNWYFDLWGRGTLVTVSS VL: DIQLTQSPSSLSASVGDRVTITCRASQGILNCLAWYQQKPGKVPNLLMYAASTLQSGVPSRFSGSGFGTDFTLTISSLQPEDVATYYCQTYGGVSTFGGGTKVEIR", "RLU", 112]
]}

Sample TCN-546 (5089_L08) (antibody, V domains shown) VH: QVQLQQWGAGLLKPSETLSLTCGVYGGSLSDYYWSWIRQPPGKGLEWIGEINHSGGTNYNPSLKRRVTISVDTSKKQFSLKMNSVTAADTAVYYCARGTDPDTEVYCRAGNCAAFDFWGQGTLVTVSS VL: EIVLTQSPGTLSLSPGERATLSCRASHFVIGRAVAWYQQKPGQAPRLLIYGASSRATGIPDRFSGSGSGTDFTLTISRLETEDFAVFYCQHYGSSPRYAFGQGTKLEIK ; Trimeric HA Binding: RLU observed: 211
